Each entry below lists one item and its recorded pKi value.
# Tgt: Cannabinoid receptor 2 (Mus musculus, UniProt P47936)
# Sequence (P47936 whole entry): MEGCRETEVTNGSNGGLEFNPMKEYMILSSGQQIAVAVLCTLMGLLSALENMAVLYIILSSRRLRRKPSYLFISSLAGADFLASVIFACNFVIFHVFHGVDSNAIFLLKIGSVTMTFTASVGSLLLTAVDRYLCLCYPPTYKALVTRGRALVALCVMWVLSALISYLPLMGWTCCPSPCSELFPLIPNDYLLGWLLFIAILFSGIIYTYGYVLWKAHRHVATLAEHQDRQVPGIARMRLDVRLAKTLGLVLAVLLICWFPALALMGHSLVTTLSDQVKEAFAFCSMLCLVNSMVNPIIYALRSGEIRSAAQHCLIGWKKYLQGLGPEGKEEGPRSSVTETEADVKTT
// scale note: pKi = -log10(conc_M); give the bare number

For orientation, consider the following solved cases.
# Molecule, Tgt, pKi
rows = [
    ("CC1=CC[C@@H]2[C@@H](C1)c1c(O)cc(C3SCCS3)cc1OC2(C)C", "Cannabinoid receptor 2 (Mus musculus, UniProt P47936)", 6.99),
    ("CCCCCCC1(c2cc(O)c3c(c2)OC(C)(C)[C@@H]2CC=C(C)C[C@@H]32)CCCC1", "Cannabinoid receptor 2 (Mus musculus, UniProt P47936)", 8.72),
    ("CCCCCCC1(c2cc(O)c3c(c2)OC(C)(C)[C@@H]2CC=C(C)C[C@@H]32)SC(C)C(C)S1 (stereo partly specified)", "Cannabinoid receptor 2 (Mus musculus, UniProt P47936)", 7.71),
]

Form: item CCCCCCC1(c2cc(O)c3c(c2)OC(C)(C)[C@@H]2CC=C(C)C[C@@H]32)SCCCS1 ; test system Cannabinoid receptor 2 (Mus musculus, UniProt P47936); pKi: 8.44

Form: item CCCCCCC1(c2cc(O)c3c(c2)OC(C)(C)[C@@H]2CC=C(C)C[C@@H]32)Sc2ccccc2S1 ; test system Cannabinoid receptor 2 (Mus musculus, UniProt P47936); pKi: 6.59

Form: item CCCCCCC1(c2cc(O)c3c(c2)OC(C)(C)[C@@H]2CC=C(C)C[C@@H]32)OCCO1 ; test system Cannabinoid receptor 2 (Mus musculus, UniProt P47936); pKi: 9.66
